Below: compounds with Ki recorded for Serine/threonine-protein kinase PLK1 (Homo sapiens) in separate published works.

Previously resolved entries follow.
compound: CC1(C)c2[nH]nc(NC(=O)C3([Si](C)(C)C)CCC3)c2CN1C(=O)N1CCOc2ccccc21
Ki: ≥ 5000 nM
--
compound: COc1cc(C(=O)N2CCNCC2)ccc1Nc1ncc2c(n1)N(C1CCCC1)CCC(=O)N2C
Ki: 10 to 100 nM
--
compound: CC(Nc1ncc(C#N)c(-c2c[nH]c3ncc(C(F)(F)F)cc23)n1)c1ccc(N[C@@H]2CCNC2)nc1 (stereo partly shown)
Ki: < 3 nM

// next item, Ki requested
Please tell me: Ki of `COc1ncc([C@@H](C)Nc2ncc(C#N)c(-c3c[nH]c4ncc(C(F)(F)F)cc34)n2)cn1` , system Serine/threonine-protein kinase PLK1 (Homo sapiens)?
< 3 nM
